Tested on: gastric cancer cell MGC803
assay_text: MTT assay, gastric cancer cell MGC803
Type: cell-based
experimental_parameters: HF 10 nM, lactone 160 μM, alone or combined, 24 hours
Please go through the items and note down their Cell death rate (%).
For clarity, give the value followed by its unit.

[in] Record lookup: for gastric cancer cell MGC803, what Cell death rate (%) belongs to C[C@H]1[C@H](OC(=O)CCC(=O)O)O[C@@H]2O[C@@]3(C)CC[C@H]4[C@H](C)CC[C@@H]1[C@@]24OO3 [ASU, artesunate] ?
[out] 1.15 ± 0.92%

[in] Record lookup: for gastric cancer cell MGC803, what Cell death rate (%) belongs to `C[C@@H]1CC[C@H]2[C@@H](C)C(=O)O[C@@H]3O[C@@]4(C)CC[C@@H]1[C@]32OO4` ?
[out] 1.00 ± 3.31%

[in] Record lookup: for gastric cancer cell MGC803, what Cell death rate (%) belongs to C[C@H]1[C@@H](O)O[C@@H]2O[C@@]3(C)CC[C@H]4[C@H](C)CC[C@@H]1[C@@]24OO3 [DAT, dihydroartemisinin] ?
[out] 1.81 ± 0.83%

[in] Record lookup: for gastric cancer cell MGC803, what Cell death rate (%) belongs to O=C(CC1NCCCC1O)Cn1cnc2cc(Br)c(Cl)cc2c1=O (stereo not shown) ?
[out] 8.10 ± 2.77%

---

Test system: gastric cancer cell MGC803
assay_text: MTT assay, gastric cancer cell MGC803
Format: cell-based
experimental_parameters: HF 40 nM, lactone 640 μM, alone or combined, 24 hours
measured_property: Cell death rate (%)
For clarity, give the value followed by its unit.

[in] Record lookup: for gastric cancer cell MGC803, what Cell death rate (%) belongs to `C[C@@H]1CC[C@H]2[C@@H](C)C(=O)O[C@@H]3O[C@@]4(C)CC[C@@H]1[C@]32OO4` ?
[out] 40.00 ± 3.18%

[in] Record lookup: for gastric cancer cell MGC803, what Cell death rate (%) belongs to C[C@H]1[C@H](OC(=O)CCC(=O)O)O[C@@H]2O[C@@]3(C)CC[C@H]4[C@H](C)CC[C@@H]1[C@@]24OO3 [ASU, artesunate] ?
[out] 43.57 ± 2.56%

[in] Record lookup: for gastric cancer cell MGC803, what Cell death rate (%) belongs to O=C(CC1NCCCC1O)Cn1cnc2cc(Br)c(Cl)cc2c1=O (stereo not shown) ?
[out] 29.00 ± 3.31%

[in] Record lookup: for gastric cancer cell MGC803, what Cell death rate (%) belongs to C[C@H]1[C@@H](O)O[C@@H]2O[C@@]3(C)CC[C@H]4[C@H](C)CC[C@@H]1[C@@]24OO3 [DAT, dihydroartemisinin] ?
[out] 42.59 ± 2.43%

---

Test system: melanoma cell A375
assay_text: MTT assay, melanoma cell A375
Assay type: cell-based
experimental_parameters: HF 10 nM, lactone 160 μM, alone or combined, 24 hours
measured_property: Cell death rate (%)
Only the number, expressed in %, is required.

[in] Requested read-out: Cell death rate (%). Entry: C[C@H]1[C@H](OC(=O)CCC(=O)O)O[C@@H]2O[C@@]3(C)CC[C@H]4[C@H](C)CC[C@@H]1[C@@]24OO3 [ASU, artesunate]
[out] 16.15

[in] Requested read-out: Cell death rate (%). Entry: C[C@H]1[C@@H](O)O[C@@H]2O[C@@]3(C)CC[C@H]4[C@H](C)CC[C@@H]1[C@@]24OO3 [DAT, dihydroartemisinin]
[out] 16.81

[in] Requested read-out: Cell death rate (%). Entry: O=C(CC1NCCCC1O)Cn1cnc2cc(Br)c(Cl)cc2c1=O (stereo not shown) [HF, Halofuginone]
[out] 5.70

[in] Requested read-out: Cell death rate (%). Entry: C[C@@H]1CC[C@H]2[C@@H](C)C(=O)O[C@@H]3O[C@@]4(C)CC[C@@H]1[C@]32OO4 [ATS, Artemisinin]
[out] 16.50
